Entry source: patent US20150087809A1

experimental system: HLA-A24 type molecule (product of the HLA-A*2402 gene) (human)
Form field: -log Kd (one value per entry).
parameter: -log Kd

INSERT INTO results (binder, value_measured) VALUES
  ('PLLRDEVTF (modifications not checked) [SEQ ID NO 59]', '5.09 -log Kd (M)'),
  ('RYAPACKPL (modifications not checked) [SEQ ID NO 71]', '6.76 -log Kd (M)'),
  ('AFYGVWPLL (modifications not checked) [SEQ ID NO 49]', '7.73 -log Kd (M)'),
  ('LMTHFFSIL (modifications not checked) [SEQ ID NO 64]', '5.92 -log Kd (M)'),
  ('GLIHLHQNI (modifications not checked) [SEQ ID NO 54]', '5.86 -log Kd (M)'),
  ('WLRDVWDWI (modifications not checked) [SEQ ID NO 76]', '6.34 -log Kd (M)'),
  ('WHYPCTVNF (modifications not checked) [SEQ ID NO 52]', '6.39 -log Kd (M)'),
  ('ILLGPADSF (modifications not checked) [SEQ ID NO 75]', '5.5 -log Kd (M)'),
  ('AYYSMVGNW (modifications not checked) [SEQ ID NO 67]', '6.47 -log Kd (M)'),
  ('LMCAVHPEL (modifications not checked) [SEQ ID NO 55]', '6.59 -log Kd (M)'),
  ('SYTWTGALI (modifications not checked) [SEQ ID NO 61]', '7.13 -log Kd (M)'),
  ('TVLADFKTW (modifications not checked) [SEQ ID NO 56]', '6.52 -log Kd (M)'),
  ('ILMTHFFSI (modifications not checked) [SEQ ID NO 60]', '7.9 -log Kd (M)'),
  ('AQPGYPWPL (modifications not checked) [SEQ ID NO 58]', '5.36 -log Kd (M)'),
  ('VILDSFEPL (modifications not checked) [SEQ ID NO 45]', '5 -log Kd (M)'),
  ('LLKRLHQWI (modifications not checked) [SEQ ID NO 65]', '6.86 -log Kd (M)');
